The reported numbers originate from patent US10517889B2.

# System: mouse Smad7 mRNA
# Assay method text: Murine Smad7 mRNA expression after subcutaneous administration in BALB/c mice (Example 10)
# Type: in vivo
# Measurement context: 50 mg/kg subcutaneous once a week for 4 weeks, 24 hours after last dose, duodenum
Strand notation (5' to 3'): a small letter for the sugar, then the base; units joined by * are phosphorothioate-linked, units joined directly phosphodiester-linked; [ ] holds rarer units or linkages, { } end groups; capitals alone tell only the bases. k = constrained ethyl (cEt); [5mC] = 5-methylcytosine; d = 2'-deoxy (DNA)
Measured Mouse Smad7 mRNA expression (% inhibition), Duodenum accompanies every entry in the list below.
The reply should be a number in % inhibition, with the unit left off.

Substance	Subject of test	Unit tag	Endpoint result
ION 830025 (antisense TTTGTAAATCGAAAGC; 3-10-3 cEt gapmer, phosphorothioate, further chemistry not given here) [sodium salt]	mouse Smad7 mRNA	% inhibition	26

Recall and state the measured Mouse Smad7 mRNA expression (% inhibition), Duodenum for ION 736697: uniform deoxy phosphorothioate oligonucleotide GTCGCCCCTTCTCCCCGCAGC (SEQ ID NO: 2736), same sequence and chemistry as GED-0301 (Mongersen) (DNA, all phosphorothioate, methylation of C not given here) [reference compound] .
0

Recall and state the measured Mouse Smad7 mRNA expression (% inhibition), Duodenum for ION 790615: 3-10-3 (S)-cEt gapmer targeting human SMAD7; top lead compound (k[5mC]*k[5mC]*kA*dA*dT*dG*dA*dG*dA*dA*dT*dG*d[5mC]*kT*kT*k[5mC]) .
39

Recall and state the measured Mouse Smad7 mRNA expression (% inhibition), Duodenum for ION 798781 (CGTAAGATTCACAGCA; 3-10-3 cEt gapmer, further chemistry not given here) .
27
